These data points were gathered from patent US20060160070A1.

Target: HLA A*0101 (Homo sapiens, UniProt P04439, A114D/A174V/A182V/D101N/D185E/E176A/E190D/L180R/Q94H/R68K/S129P/T187R/V100A/V91M/W191G)
Construct: purchased
Test: ITOPIA peptide binding assay
Settings: 1.11×10^−4M of peptide
ASSAY METRIC: level of binding, percent of positive control peptide binding

- SUBSTANCE: "155 (HNEWTLELL; HIV) [compound 155]"
  MEASURED: "0% of positive control"
- SUBSTANCE: "70 (VPLTEEAEL; HIV) [compound 70]"
  MEASURED: "1% of positive control"
- SUBSTANCE: "KLAGRWPVT [compound 157]"
  MEASURED: "2% of positive control"
- SUBSTANCE: "CSSNITGLI [compound 154]"
  MEASURED: "5% of positive control"
- SUBSTANCE: "KLAGRWPVK [compound 71]"
  MEASURED: "0% of positive control"
- SUBSTANCE: "VTLTEEAEL [compound 156]"
  MEASURED: "1% of positive control"
- SUBSTANCE: "ALFYKLDVV [compound 72]"
  MEASURED: "4% of positive control"
- SUBSTANCE: "FPRIWLHGL [compound 152]"
  MEASURED: "0% of positive control"
- SUBSTANCE: "ALFYKLDVI [compound 158]"
  MEASURED: "1% of positive control"
- SUBSTANCE: "RGRQKVVSL [compound 68]"
  MEASURED: "0% of positive control"
- SUBSTANCE: "CSSNITGLL [compound 69]"
  MEASURED: "4% of positive control"
- SUBSTANCE: "RGRQKVVSI [compound 153]"
  MEASURED: "0% of positive control"
- SUBSTANCE: "YNEWTLELL [compound 22]"
  MEASURED: "0% of positive control"
